System: NQO1-ARE
TEST_METHOD_NOTES: NQO1-ARE luciferase reporter assay in HuH7 cells (Nrf2 transcriptional activity)
Type: cell-based
RUN_CONDITIONS: Homo sapiens, Huh-7, 62.5 nM compound, 18 h, Firefly normalized to Renilla, over DMSO vehicle control
MEASURED_PARAMETER: fold induction at 0.0625 µM
When you answer, write just the number.

{"QUERY_SMILES": "C[C@@H]1C(=O)C(C#N)=C[C@]2(C)C3=CC(=O)[C@@H]4[C@@H]5CC(C)(C)CC[C@]5(C(=O)n5ccnc5)CC[C@@]4(C)[C@]3(C)CC[C@@H]12", "fold induction at 0.0625 µM": 4.1}
{"QUERY_SMILES": "C[C@@H]1C(=O)C(C#N)=C[C@]2(C)C3=CC(=O)[C@@H]4[C@@H]5CC(C)(C)CC[C@]5(C(=O)NCC(F)(F)F)CC[C@@]4(C)[C@]3(C)CC[C@@H]12", "fold induction at 0.0625 µM": 5.6}
{"QUERY_SMILES": "Cc1nnc([C@]23CCC(C)(C)C[C@H]2[C@H]2C(=O)C=C4[C@@]5(C)C=C(C#N)C(=O)[C@@H](C)[C@@H]5CC[C@@]4(C)[C@]2(C)CC3)o1", "fold induction at 0.0625 µM": 4.4}
{"QUERY_SMILES": "C[C@@H]1C(=O)C(C#N)=C[C@]2(C)C3=CC(=O)[C@@H]4[C@@H]5CC(C)(C)CC[C@]5(C(=O)O)CC[C@@]4(C)[C@]3(C)CC[C@@H]12", "fold induction at 0.0625 µM": 5.3}
{"QUERY_SMILES": "C[C@@H]1C(=O)C(C#N)=C[C@]2(C)C3=CC(=O)[C@@H]4[C@@H]5CC(C)(C)CC[C@]5(CO)CC[C@@]4(C)[C@]3(C)CC[C@@H]12", "fold induction at 0.0625 µM": 7.2}
{"QUERY_SMILES": "COC(=O)[C@]12CCC(C)(C)C[C@H]1[C@H]1C(=O)C[C@@H]3[C@@]4(C)C=C(C#N)C(=O)[C@@H](C)[C@@H]4CC[C@@]3(C)[C@]1(C)CC2", "fold induction at 0.0625 µM": 2.3}

Value lookup for fold induction at 0.0625 µM; key = `C[C@@H]1C(=O)C(C#N)=C[C@]2(C)C3=CC(=O)[C@]45OC(=O)[C@@]6(CCC(C)(C)C[C@H]64)CC[C@@]5(C)[C@]3(C)CC[C@@H]12`
6.1

Value lookup for fold induction at 0.0625 µM; key = `COC(=O)[C@]12CCC(C)(C)C[C@H]1[C@H]1C(=O)C=C3[C@@]4(C)C=C(C#N)C(=O)[C@@H](C)[C@@H]4CC[C@@]3(C)[C@]1(C)CC2`
7.2

Value lookup for fold induction at 0.0625 µM; key = `C[C@@H]1C(=O)C(C#N)=C[C@]2(C)C3=CC(=O)[C@@H]4[C@@H]5CC(C)(C)CC[C@]5(NC(=O)C(C)(F)F)CC[C@@]4(C)[C@]3(C)CC[C@@H]12`
5.7
